Please respond with reported Cmax for every item in the list.
Run description: pharmacokinetic properties in mouse after single intravenous and oral administration
Type: in vivo
Details: female, plasma, 0.2 mg/kg, PK data in mouse, dose-normalized to 1 mg/kg
Please state the figure in ng/mL; there is no need to write the unit.

Requested read-out: Cmax. Entry: COc1ccc(C2CCOCC2)c2nc(NC(=O)c3ccc(CN4CCCC4=O)cc3)[nH]c12 1.9

Look at this compound and give its reported Cmax. COc1ccc(-c2cnn(C)c2)c2nc(NC(=O)c3ccc(CN4CCCC4=O)cc3)[nH]c12 888

What measured Cmax goes with COc1ccc(-c2cnn(C)c2)c2nc(NC(=O)c3ccnc(N4CC[C@@](C)(O)C4)c3)[nH]c12 ? 718

Fill in: Cmax of COc1ccc(-c2cnn(C)c2)c2nc(NC(=O)N3CC[C@@]4(CCOC4)C3)[nH]c12 is ___ 1130

Fill in the blank: the reported Cmax of COc1ccc(-c2cnn(C)c2)c2nc(NC(=O)N3CC[C@]4(CCOC4)C3)[nH]c12 is ____. 2450

State the recorded Cmax for this entry: COc1ccc(-c2cnn(C)c2)c2nc(NC(=O)N3CC[C@@]4(CCCOC4)C3)[nH]c12 1440

Query (compound): COc1ccc(N2CCOCC2)c2nc(NC(=O)N3CCC(C)(O)CC3)[nH]c12 ; field requested: Cmax 2650

Any idea what Cmax was measured for C#CCC1(O)CCN(C(=O)Nc2nc3c(-c4cnn(C)c4)ccc(OC)c3[nH]2)CC1 ? 892

====

Field: IC50. Provide a value for each of the compounds that follow.
Measurement target: human A2A receptor (Homo sapiens, UniProt P29274)
Sequence (P29274 whole entry): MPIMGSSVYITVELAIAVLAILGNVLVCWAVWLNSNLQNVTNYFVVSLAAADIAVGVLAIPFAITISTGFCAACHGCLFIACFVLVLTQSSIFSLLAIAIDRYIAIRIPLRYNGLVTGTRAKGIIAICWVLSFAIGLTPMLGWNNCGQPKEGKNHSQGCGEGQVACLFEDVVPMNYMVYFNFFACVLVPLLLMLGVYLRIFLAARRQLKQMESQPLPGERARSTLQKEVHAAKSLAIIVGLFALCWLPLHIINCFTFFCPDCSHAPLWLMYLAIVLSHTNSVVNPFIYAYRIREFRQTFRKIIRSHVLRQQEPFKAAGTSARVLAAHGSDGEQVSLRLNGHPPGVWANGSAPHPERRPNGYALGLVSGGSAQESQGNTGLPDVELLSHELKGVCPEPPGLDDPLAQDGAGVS
Run description: functional cAMP (HTRF) assay, recombinant HEK293 cells expressing human A2A receptor, agonist NECA

Need IC50, item COc1ccc(-c2ccccc2)c2nc(NC(=O)c3c[nH]c(-c4ccncc4)n3)[nH]c12 < 100 nM

Quick one: IC50 of COc1ccc(-c2cccc(F)c2)c2nc(NC(=O)c3ccc(C(=O)N(C)C)cc3)[nH]c12 ? < 10 nM

Field request: IC50 | item: COc1ccc(-c2cnn(C)c2)c2nc(NC(=O)c3cncs3)[nH]c12 < 10 nM

Request the reported IC50 associated with COc1ccc(-c2cccc(F)c2)c2[nH]c(NC(=O)c3c[nH]cn3)nc12 < 10 nM

Which IC50 is reported for this compound? COc1ccc(-c2cnn(C)c2)c2nc(NC(=O)c3ccon3)[nH]c12 < 100 nM

State the recorded IC50 for this entry: COc1ccc(N2CCOCC2)c2nc(NC(=O)c3cnn(C)c3)[nH]c12 < 10 nM

Quick one: IC50 for COc1ccc(-c2ccccc2)c2nc(NC(=O)c3ccc(CN)cc3)[nH]c12 ? < 10 nM

Which value of IC50 has been reported for COc1ccc(-c2ccnc(C)c2)c2[nH]c(NC(=O)c3c[nH]cn3)nc12 in the records? < 100 nM

Tell me the measured IC50 of COc1ccc(-c2cnn(C)c2)c2nc(NC(=O)c3ccnc(N4CCC(C)(O)C4)c3)[nH]c12 (centres unmarked) , please. < 10 nM

May I ask what IC50 has been recorded for COc1ccc(-c2cnn(C)c2)c2nc(NC(=O)N3CCC(Oc4ccccc4)CC3)[nH]c12 ? < 100 nM

What value of measured IC50 is listed for COCCN(C)C(=O)c1ccc(C(=O)Nc2nc3c(OC)ccc(-c4ccccc4)c3[nH]2)cc1 ? < 100 nM

Query (compound): COc1ccc(-c2cnn(C)c2)c2nc(NC(=O)c3ccc4ocnc4c3)[nH]c12 ; field requested: IC50 < 100 nM

Find the recorded IC50 belonging to COc1ccc(-c2ccccc2)c2[nH]c(NC(=O)c3ccc(C(=O)N4CCN(C)CC4)cc3)nc12 and report it. < 100 nM

Bench note: what IC50 did COc1ccc(-c2ccc(F)cc2)c2nc(NC(=O)c3cnn(C)c3)[nH]c12 show? < 10 nM

Which IC50 reading was recorded for the compound COc1ccc(C2CCOCC2)c2nc(NC(=O)c3ccc(Cn4ccnc4)cc3)[nH]c12 ? < 10 nM

Using the record for COc1ccc(-c2ccccc2)c2nc(NC(=O)c3cnc4n3CCCC4)[nH]c12 , report its IC50. < 100 nM

If you can, please state the reported IC50 value of CCCN(C)C(=O)c1ccc(C(=O)Nc2nc3c(OC)ccc(-c4ccccc4)c3[nH]2)cc1 . < 100 nM
